Numbers sourced from ChEMBL document CHEMBL4261606.

Can you tell me Time for the items I'm about to list?
system: Plasma; assay: Inhibition of AAPH-induced oxidation of human plasma derived LDL assessed as time of delay for initiation of propagation phase by measuring rate of oxygen consumption at 20 uM added before AAPH addition by high-resolution oxygen electrode
Report the value in min with no unit label.

Time of `CN(C)c1ccc(/C=C\[N+](=O)[O-])cc1` on Plasma? 20

Same again, this time with `C/C(=C/c1ccc(N(C)C)cc1)[N+](=O)[O-]` 20

Same again, this time with CC(Cc1ccc(N(C)C)cc1)[N+](=O)[O-] (centres undefined) 30

###

Can you tell me Activity for the items I'm about to list?
assay: Antioxidant activity assessed as trolox equivalent of AAPH-induced peroxyl radical scavenging activity at 1.3 to 13 uM up to 140 mins by ORAC-FL assay; type: functional
Report the value in equiv with no unit label.

Given `CSc1ccc(CC[N+](=O)[O-])cc1` , state its recorded Activity. 2.8

Same again, this time with `CSc1ccc(/C=C\[N+](=O)[O-])cc1` 3.5

Same again, this time with `C/C(=C/c1ccc(N(C)C)cc1)[N+](=O)[O-]` 5.4

Same again, this time with `C/C(=C/c1ccc(Cl)cc1)[N+](=O)[O-]` 0.39

Same again, this time with `O=[N+]([O-])/C=C\c1ccc2c(c1)OCO2` 0.72

Same again, this time with `CC(=O)Nc1ccc(CC[N+](=O)[O-])cc1` 0.26

Same again, this time with `O=[N+]([O-])/C=C\c1cccs1` 0.43
